The measurements presented in this section are drawn from patent US20250170112A1.

# target.system: human Adenosine A1 receptor (Homo sapiens, UniProt P30542)
# Sequence (P30542 1-326): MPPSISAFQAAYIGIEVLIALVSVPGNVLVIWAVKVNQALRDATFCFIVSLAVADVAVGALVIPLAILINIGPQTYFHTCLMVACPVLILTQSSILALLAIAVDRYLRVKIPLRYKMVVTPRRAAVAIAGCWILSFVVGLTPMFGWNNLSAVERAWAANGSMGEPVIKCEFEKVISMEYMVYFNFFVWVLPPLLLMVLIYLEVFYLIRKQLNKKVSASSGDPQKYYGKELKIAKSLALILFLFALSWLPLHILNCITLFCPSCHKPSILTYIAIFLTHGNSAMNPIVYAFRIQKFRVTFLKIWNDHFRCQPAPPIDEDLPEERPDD
# protocol.text: GTPγS scintillation proximity assay, agonist testing
# conditions: agonist activity; membrane extracts of CHO-K1 cells expressing recombinant human A1; read-out: A1AR EC50
pEC50 by entry:
Formally, pEC50 is defined as -log10 of the concentration c, with c in mol/L.

1. N#Cc1c(N)nc(OC[C@H]2CCOC2)c(C#N)c1-c1ccc(OC2COC2)cc1 [Compound 290]
6.58

query: What value of pEC50 has been reported for the following compound? N#Cc1c(SCc2cccnn2)nc(C2CC2)c(C#N)c1-c1ccc(OCCOC(F)F)cc1 [Compound 239]
result: 6.08

query: What measured pEC50 goes with N#Cc1c(N)nc(SCc2cccnn2)c(C#N)c1-c1ccc(OCCO)cc1 [Compound 178] ?
result: 8.82

query: Could you tell me which pEC50 is on file for N#Cc1c(N)nc(SCc2cccnn2)c(C#N)c1-c1ccc(OCCOC(F)F)cc1 [Compound 237] ?
result: 8.79

query: What does the record list as pEC50 for N#Cc1c(N)nc(SCCO)c(C#N)c1-c1ccc(OCCO)cc1 [Compound 177] ?
result: 7.24

query: Would you kindly share the measured pEC50 for CC(C)(O)COc1ccc(-c2c(C#N)c(N)nc(SCc3cccnc3)c2C#N)cc1 [Compound 51] ?
result: 7.42

query: Look up pEC50: COCCOc1ccc(-c2c(C#N)c(N)nc(SCc3cccc4c3CCO4)c2C#N)cc1 [Compound 212]
result: 5.12

query: If you can, please state the reported pEC50 value of COc1cccc(CSc2nc(N)c(C#N)c(-c3ccc(OC4COC4)cc3)c2C#N)c1 [Compound 33] .
result: 8.10

query: Which pEC50 value is on record for N#Cc1c(SCc2cccnn2)nc(N2CC(F)C2)c(C#N)c1-c1ccc(OCCOC(F)F)cc1 [Compound 241] ?
result: 7.14

query: Consider the compound shown here: CNC(=O)CSc1nc(N2CCCC2)c(C#N)c(-c2ccc(OCCOC)cc2)c1C#N [Compound 79] What is its recorded pEC50?
result: 5.75

query: pEC50 lookup needed for COCCOc1ccc(-c2c(C#N)c(N)nc(SCc3cccc4[nH]ccc34)c2C#N)cc1 [Compound 67] , thanks.
result: 7.75

query: # query: pEC50 of entry N#CCCSc1nc(N)c(C#N)c(-c2ccc(OCCO)cc2)c1C#N [Compound 121]
result: 6.49
